ASSAY_PROCEDURE: MTT cytotoxicity assay
Assay type: cell-based
MEASUREMENT_SETUP: human

# MOLECULE, viability at 24 h, 100 μM
measured = [
    ("O=c1cc(-c2ccccc2)oc2cc(O)c(O)cc12 [compound 2, 6,7-dihydroxyflavone]", "~60%"),
]

---

ASSAY_PROCEDURE: MTT cytotoxicity assay
Assay type: cell-based
MEASUREMENT_SETUP: human; 100 μM flavonoid; 24 h; 5Y cells; relative to DMSO; read-out: cell viability
READOUT_LABEL: viability at 24 h, 100 μM

# COMPOUND_STRUCTURE_STRING, OBSERVED
records = [
    ("O=c1cc(-c2ccccc2)oc2cc(O)cc(O)c12", "~30%"),
    ("O=c1cc(-c2ccccc2)oc2cc(O)c(O)c(O)c12", "~70%"),
]
